Test system: OVCAR-4 ovarian
procedure-text: NCI-60 one-dose screen, 48 h (100 = growth as untreated, 0 = no growth, -100 = all killed)
test-parameters: 10 µM
This is part of a sample that, as a whole, favours compounds with a hit. Of some 83,000 tested, about 20% had one in any assay.
outcome-measure: growth (%)
Give bare numbers, in %.

Cc1cn(C(=O)/C(Cl)=C(/Cl)C(=O)O)c2ccccc12 = 101
CC(=O)Nc1ccc2c(c1)C(N1CC3CCC(CC3)C1)c1ccccc1-2 (configuration not stated) = 65.9
O=C(Nc1cccc(F)c1)Nc1cccc(Cl)c1 = 87.2
O=C1CC[C@@H](C(=O)N[C@H]2CSSC[C@@H](C(=O)N/C=C/c3ccc(O)cc3)NC(=O)[C@H](Cc3ccccc3)NC(=O)[C@@H]3CCCN3C(=O)[C@@H]3CCCN3C2=O)N1 = 112
CCNC(=S)NN = 82.2

Kindly give each listed record's growth.
1. COc1ccc(Cn2cc3c(c2-c2ccccc2)CC(C)(C)c2cnoc2-3)cc1
2. NC1CCC(Nc2nc(NCc3ccc(-c4ccccc4O)nc3)c3ncn(C4CCCC4)c3n2)CC1 (configuration not stated)
3. C=CCN1C(=O)/C(=C\c2ccc3c(c2)CCC3)SC1=S
4. C/C(=N\NC(=S)N1CCCC1)c1ccccn1

Outgoing:
1: 60.4; 2: 6.5; 3: 106; 4: 3.92

Kindly give each listed record's growth.
1. CNC(=O)c1cc(Oc2ccc(NC(=O)Nc3ccc(Cl)c(OC(C)C)c3)c(F)c2)ccn1
2. Oc1[nH]c2ccccc2c1/C=c1/cc2c(c(-c3ccc(C(F)(F)F)cc3)n1)=Nc1ccccc1-2
3. CC(C)/C(=N/O)c1ccccc1
4. CCCCC(CC#N)(CCC)CCC

Outgoing:
1: 24.1; 2: 50.5; 3: 111; 4: 93.2

Kindly give each listed record's growth.
1. CCCCCCN=C(N)CCCCCCCCCCC(N)=NCCCCCC
2. CCOC(=O)c1cc(-c2ccccc2)nc(N)n1
3. Cc1cc(C#Cc2ccccc2)ccc1-n1c(/C=C/c2cc(O)ccc2O)nc2ccccc2c1=O
4. C/C=C\COc1cc(C)c(Cl)cc1Cl
5. CCCCn1c(=O)[nH]c2c(c1=O)C(c1ccc(Cl)cc1)c1c([nH]c(=O)n(CCCC)c1=O)N2
6. COc1ccc(-c2ccc(-c3ccc(C(=N)N)c(F)c3)s2)cc1

Outgoing:
1: 27.6; 2: 107; 3: 19.2; 4: 94.7; 5: 102; 6: -67.9

Kindly give each listed record's growth.
1. COc1cc(C2CC(=O)Nc3c2c(C)nn3-c2nc3ccccc3[nH]2)cc(OC)c1O (configuration not stated)
2. CS(=O)(=O)Nc1ccc(Nc2c3ccccc3nc3cc(Cl)ccc23)cc1
3. NC1CCC(Nc2nc(NCc3ccc(-c4ccco4)nc3)c3ncn(C4CCCC4)c3n2)CC1 (configuration not stated)

Outgoing:
63.8
56.7
2.67
